# Target desc: T1, cynomolgus recombinant IL-4Rα (cynomolgus (table head: cyno/rhesus), UniProt A0A2K5V556 26-232)
# T1 construct: Bought reagent; also called cyno/rhesus IL-4Rα; cyno IL-4Rα
# T1 sequence: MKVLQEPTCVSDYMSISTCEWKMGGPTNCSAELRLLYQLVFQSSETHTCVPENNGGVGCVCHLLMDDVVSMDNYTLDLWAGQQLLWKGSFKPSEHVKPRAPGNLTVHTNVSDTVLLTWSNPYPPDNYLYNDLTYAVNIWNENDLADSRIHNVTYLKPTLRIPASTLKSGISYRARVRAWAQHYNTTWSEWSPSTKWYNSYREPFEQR
# Procedure summary: SPR (Biacore 3000), periplasmic Fab over CM5 chip coated with cyno IL-4Rα
Would you mind telling me the reported koff of each entry?
One number for each entry, in s⁻¹.

Use these answered entries as a reference point.
Binder	koff [s⁻¹]
153E11 Fab (variant of 4RMP3D6) (Fab, V domains shown, Fab from periplasmic extract, with CH1 and CK constant domains; also called VH153E11) VH: QVQLQESGGGLVQPGGSLRLSCAASGFTFSSYSLTWVRQAPGKGLEWVSTIKARGGTTLYADSVKDRFTISRDNAKNTLYLLMNSLKPEDTAVYYCAKPLYNNFAGHFGSWGQGTTVTVSS VL: DIQMTQSPSSLSASLGDRVTITCQASQSISSYLAWYQQKPGQAPKLLIYGGSRLQTGVPSRFSGSGSGTSFTLTISGLETEDLATYYCQQDYSWPLTFGQGTKLEIK	0.0014
152A07 Fab (variant of 4RMP3D6) (Fab, V domains shown, also called VH152A07) VH: QVQLQESGGGLVQPGGSLRLSCAASGFTFSSYSLTWVRQAPGKGLEWVSTIKARGGTTLYADSVKDRFTISRDNAKNTLYLLMNSLKPEDTAVYYCAKPLYSNLAGDLGSWGQGTTVTVSS VL: DIQMTQSPSSLSASLGDRVTITCQASQSISSYLAWYQQKPGQAPKLLIYGGSRLQTGVPSRFSGSGSGTSFTLTISGLETEDLATYYCLQDYSWPLTFGQGTKLEIK	0.0017
150A09 Fab (variant of 4RMP3D6) (Fab, V domains shown, Fab from periplasmic extract, with CH1 and CK constant domains; also called VH150A09) VH: QVQLQESGGGLVQPGGSLRLSCAASGFTFSSYSLTWVRQAPGKGLEWVSTIKARGGTTLYADSVKDRFTISRDNAKNTLYLLMNSLKPEDTAVYYCVKPLYSNFAGDFGSWGQGTTVTVSS VL: DIQMTQSPSSLSASLGDRVTITCQASQSISSYLAWYQQKPGQAPRLLIYGGSRLQTGVPSRFSGSGSGTSFTLTISGLETEDLATYYCQQDYSWPLTFGQGTKLEIK	0.002
152B10 Fab (variant of 4RMP3D6) (Fab, V domains shown, Fab from periplasmic extract, with CH1 and CK constant domains; also called VH152B10) VH: QVQLQESGGGLVQPGGSLRLSCAASGFTFSSYSLTWVRQAPGKGLEWVSTIKARGGTTLYADSVKDRFTISRDNAKNTLYLLVNSLKPEDTAVYYCAKPLYNNLAGDFGSWGQGTTVTVSS VL: DIQMTQSPSSLSASLGDRVTITCQASQSISSYLAWYQQKPGQAPKLLIYGGSRLQAGVPSRFSGSGSGTSFTLTIGGLETEDLATYYCQQDYSWPLTFGQGTKLEIK	0.0026
153A11 Fab (variant of 4RMP3D6) (Fab, V domains shown, Fab from periplasmic extract, with CH1 and CK constant domains; also called VH153A11) VH: QVQLQESGGGLVQPGGSLRLSCAASGFTFSSYSLTWVRQAPGKGLEWVSTIKARGGTTLYADSVKDRFTISRDNAKNTLYLQMNSLKPEDTAVYYCAKPLYSNLAGDFGSWGQGTTVTVSS VL: DIQMTQSPSSLSASLGDRVTITCQASQSISSYLAWYQQKSGQAPKLLIYGGSRLQTGVPSRFSGSGSGTSFTLTISGLETEDLATYYCLQVYSWPLTFGQGTKLEIK	0.00033

Okay, now this binder:
Ask: Could you tell me which koff is on file for 3D6wt Fab (parental 4RMP3D6 as Fab) (Fab, V domains shown, also called h4R3D6) VH: QVQLQESGGGLVQPGGSLRLSCAASGFTFSSYSLTWVRQAPGKGLEWVSTIKARGGTTLYADSVKDRFTISRDNAKNTLYLLMNSLKPEDTAVYYCAKPLYNNFAGDFGSWGQGTTVTVSS VL: DIQMTQSPSSLSASLGDRVTITCQASQSISSYLAWYQQKPGQAPKLLIYGGSRLQTGVPSRFSGSGSGTSFTLTISGLETEDLATYYCLQDYSWPLTFGQGTKVELK ?
Reply: 0.0017
